tested on: kochia (Kochia scoparia); test: Test C pre/postemergence; type: in vivo; conditions: Postemergence, 125 g ai/ha; scale 0 to 100 (0 no effect, 100 complete control)
# reported Kochia plant response rating; entries follow

[
  {
    "COMPOUND": "CCCOC(=O)c1nc(C2CC2)nc(N)c1Br",
    "Kochia plant response rating": 95
  },
  {
    "COMPOUND": "CCOC(=O)c1nc(-c2ccc(Cl)cc2)nc(N)c1Br",
    "Kochia plant response rating": 90
  },
  {
    "COMPOUND": "COC(=O)c1nc(C2CC2C)nc(N)c1Br (stereo not shown)",
    "Kochia plant response rating": 85
  },
  {
    "COMPOUND": "Nc1nc(C2CC2)nc(C=NO)c1Br",
    "Kochia plant response rating": 20
  }
]
